assay: HLM stability, predicted human hepatic clearance; type: in vitro ADME; conditions: well-stirred model, 1 μM, 0.5 mg/mL microsomal protein, NADPH
Experimental readout: HLM Clh (mL/min/kg)

P: CNC(=O)c1ccc(N2CCN(Cc3ccc4c5c(c(=O)[nH]c4c3)CCO5)CC2)c(Cl)n1 [Comp. Ex. 2, reference compound]
Q: CNC(=O)c1ccc(N2CCN(Cc3cc(F)c4c5c(c(=O)[nH]c4c3)COC5)CC2)c(F)n1 [Comp. Ex. 3, reference compound]
Which has the higher HLM Clh, P or Q ? Please indicate the selected item by its label.
Q

----------
target: BCRP (Homo sapiens (Human)); assay: In vitro human transporter efflux, MDCKII cells expressing BCRP; type: in vitro ADME; conditions: pH 7.4, apical-to-basolateral, 10 μM, 2-hour incubation, pH7.4, read-out: BCRP Papp AB
Sequence (Q9UNQ0 whole entry): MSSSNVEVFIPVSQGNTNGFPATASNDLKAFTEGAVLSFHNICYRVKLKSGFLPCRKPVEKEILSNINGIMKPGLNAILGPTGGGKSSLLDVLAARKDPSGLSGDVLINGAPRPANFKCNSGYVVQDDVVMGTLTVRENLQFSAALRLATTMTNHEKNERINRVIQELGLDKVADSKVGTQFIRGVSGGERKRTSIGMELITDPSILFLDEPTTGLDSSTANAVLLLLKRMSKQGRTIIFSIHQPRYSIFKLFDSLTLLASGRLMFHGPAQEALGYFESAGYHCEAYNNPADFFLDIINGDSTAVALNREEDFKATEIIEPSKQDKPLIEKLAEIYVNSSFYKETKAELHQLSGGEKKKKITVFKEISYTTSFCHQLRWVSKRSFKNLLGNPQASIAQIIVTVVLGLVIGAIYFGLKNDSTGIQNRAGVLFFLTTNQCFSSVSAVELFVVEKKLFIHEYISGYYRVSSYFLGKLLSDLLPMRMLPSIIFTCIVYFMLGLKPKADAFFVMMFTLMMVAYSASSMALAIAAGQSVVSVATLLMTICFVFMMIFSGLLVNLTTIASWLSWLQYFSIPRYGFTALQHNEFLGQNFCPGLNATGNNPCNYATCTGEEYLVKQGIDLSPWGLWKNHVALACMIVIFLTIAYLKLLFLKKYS
Experimental readout: Papp A→B at 2 h, 10 μM (×10⁻⁶ cm/s)

Papp A→B at 2 h, 10 μM recorded for this compound, [2H]C([2H])([2H])NC(=O)c1ccc(N2CCN(Cc3ccc4c5c(c(=O)[nH]c4c3F)CCO5)CC2)c(F)n1 (single isomer, unassigned) , is 28.2

Papp A→B at 2 h, 10 μM recorded for this compound, [2H]C([2H])([2H])NC(=O)c1ccc(N2CCN(Cc3ccc4c([nH]c(=O)c5ccnn54)c3F)CC2)c(F)n1 , is 21.1

Papp A→B at 2 h, 10 μM recorded for this compound, CNC(=O)c1ccc(N2CCN(Cc3ccc4c([nH]c(=O)c5ccnn54)c3F)CC2)c(F)n1 , is 21.7

Papp A→B at 2 h, 10 μM recorded for this compound, CNC(=O)c1ccc(N2CCN(Cc3ccc4c5c(c(=O)[nH]c4c3F)CCO5)CC2)c(F)n1 , is 26.7

Papp A→B at 2 h, 10 μM recorded for this compound, [2H]C([2H])(c1ccc2c3c(c(=O)[nH]c2c1F)CCO3)N1CCN(c2ccc(C(=O)NC)nc2F)CC1 (single isomer, unassigned) , is 22.9

----------
biological target: BCRP (Homo sapiens (Human)); assay: In vitro human transporter efflux, MDCKII cells expressing BCRP; assay type: in vitro ADME; conditions: pH 7.4, basolateral-to-apical, 10 μM, 2-hour incubation, pH7.4, read-out: BCRP Papp BA
Experimental readout: Papp B→A at 2 h, 10 μM (×10⁻⁶ cm/s)

Item: CNC(=O)c1ccc(N2CCN(Cc3ccc4c5c(c(=O)[nH]c4c3F)CCO5)CC2)c(F)n1 [Example 9] | System: BCRP (Homo sapiens (Human)) | Papp B→A at 2 h, 10 μM: 24.3

Item: [2H]C([2H])([2H])NC(=O)c1ccc(N2CCN(Cc3ccc4c5c(c(=O)[nH]c4c3F)CCO5)CC2)c(F)n1 (single isomer, unassigned) [Example 22] | System: BCRP (Homo sapiens (Human)) | Papp B→A at 2 h, 10 μM: 23.6

Item: CNC(=O)c1ccc(N2CCN(Cc3ccc4c([nH]c(=O)c5ccnn54)c3F)CC2)c(F)n1 [Example 1] | System: BCRP (Homo sapiens (Human)) | Papp B→A at 2 h, 10 μM: 20.4

Item: [2H]C([2H])(c1ccc2c3c(c(=O)[nH]c2c1F)CCO3)N1CCN(c2ccc(C(=O)NC)nc2F)CC1 (single isomer, unassigned) [Example 24] | System: BCRP (Homo sapiens (Human)) | Papp B→A at 2 h, 10 μM: 24.4

Item: [2H]C([2H])([2H])NC(=O)c1ccc(N2CCN(Cc3ccc4c([nH]c(=O)c5ccnn54)c3F)CC2)c(F)n1 [Example 18] | System: BCRP (Homo sapiens (Human)) | Papp B→A at 2 h, 10 μM: 18.2
